test system: 653999-131-R-J2-PDC complex spheroids, growth inhibition; assay: Anticancer human tumor 653999-131-R-J2-PDC patient-derived lung adenocarcinoma cell line growth inhibition [RAS]; conditions: second compound 1 µM; first compound 0.03 µM; stronger effect = lower value
MEASURED ATTRIBUTE: viability, T/C (%)

COMPOUND	UNITS LABEL	REPORTED MEASUREMENT
CCc1c2c(nc3ccc(O)cc13)-c1cc3c(c(=O)n1C2)COC(=O)[C@]3(O)CC + C#Cc1c(F)ccc2cc(O)cc(-c3ncc4c(N5CC6CCC(C5)N6)nc(OCC56CCCN5CC(F)C6)nc4c3F)c12	%	20.2
CC1(C)CCC(Nc2ncc(C(F)(F)F)c(-c3c[nH]c4c(P(C)(C)=O)c(C#N)ccc34)n2)CN1 (centres undefined) + C=CC(=O)N1CCN(c2nc(OCC3CCCN3C)nc3c(F)c(-c4nc(N)cc(C)c4C(F)(F)F)c(Cl)cc23)C(C)C1	%	64
CC1(C)CCC(Nc2ncc(C(F)(F)F)c(-c3c[nH]c4c(P(C)(C)=O)c(C#N)ccc34)n2)CN1 (centres undefined) + C#Cc1c(F)ccc2cc(O)cc(-c3ncc4c(N5CC6CCC(C5)N6)nc(OCC56CCCN5CC(F)C6)nc4c3F)c12	%	38.1
CCc1c2c(nc3ccc(O)cc13)-c1cc3c(c(=O)n1C2)COC(=O)[C@]3(O)CC + C=CC(=O)N1CCN(c2nc(OCC3CCCN3C)nc3c(F)c(-c4nc(N)cc(C)c4C(F)(F)F)c(Cl)cc23)C(C)C1	%	31.2

###

test system: 653999-131-R-J2-PDC complex spheroids, growth inhibition; assay: Anticancer human tumor 653999-131-R-J2-PDC cell line growth inhibition [RAS]; conditions: compound 0.316 µM; stronger effect = lower value;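 further: spheroids exposed to the agents for seven days before the readout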

COMPOUND	viability, T/C
O=C(c1ccc(F)c(F)c1Nc1ccc(I)cc1F)N1CC(O)([C@@H]2CCCCN2)C1	28.2% [middle of 4 runs]
C=CC(=O)N1CCN(c2nc(OCC3CCCN3C)nc3c(F)c(-c4nc(N)cc(C)c4C(F)(F)F)c(Cl)cc23)C(C)C1 (stereo not drawn)	107% [middle of 12 runs]
Nc1ccn(C2OC(CO)C(O)C2(F)F)c(=O)n1 (stereo not drawn)	43.1% [middle of 4 runs]

###

This section presents molecules with their documented pIC50 values.
tested on: 653999-131-R-J2-PDC complex spheroids, growth inhibition; test: Anticancer human tumor 653999-131-R-J2-PDC cell line growth inhibition [RAS]; settings: curve of first compound; second compound 0.03 µM;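 further: spheroids exposed to the agents for seven days before the readout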
pIC50: −log10 of the molar value.
MEASURED ATTRIBUTE: pIC50

MOLECULE	REPORTED MEASUREMENT
CCN1CCN(Cc2ccc(Nc3ncc(F)c(-c4cc(F)c5nc(C)n(C(C)C)c5c4)n3)nc2)CC1 + CCn1c(-c2cc(N3CCN(C)CC3)cnc2C(C)OC)c2c3cc(ccc31)-c1csc(n1)CC(NC(=O)C1CC1C)C(=O)N1CCCC(N1)C(=O)OCC(C)(C)C2	> 8.50
Cc1nc(N2CCC3(CC2)COC(C)C3N)c(CO)nc1Sc1ccnc(N)c1Cl (centres undefined) + CCn1c(-c2cc(N3CCN(C)CC3)cnc2C(C)OC)c2c3cc(ccc31)-c1csc(n1)CC(NC(=O)C1CC1C)C(=O)N1CCCC(N1)C(=O)OCC(C)(C)C2	> 7.50
NC1c2ccccc2OC12CCN(c1cnc3c(N4CCCc5ncccc54)n[nH]c3n1)CC2 (centres undefined) + CCn1c(-c2cccnc2C(C)OC)c2c3cc(ccc31)N1CCOC(CC(NC(=O)C(C(C)C)N(C)C(=O)C3(F)CCN(C(=O)C#CC(C)(C)N(C)C)CC3)C(=O)N3CCCC(N3)C(=O)OCC(C)(C)C2)C1	< 5.00
CC(=O)OC12COC1CC(O)C1(C)C(=O)C(O)C3=C(C)C(OC(=O)C(O)C(NC(=O)OC(C)(C)C)c4ccccc4)CC(O)(C(OC(=O)c4ccccc4)C21)C3(C)C (centres undefined) + CCn1c(-c2cccnc2C(C)OC)c2c3cc(ccc31)N1CCOC(CC(NC(=O)C(C(C)C)N(C)C(=O)C3(F)CCN(C(=O)C#CC(C)(C)N(C)C)CC3)C(=O)N3CCCC(N3)C(=O)OCC(C)(C)C2)C1	< 5.00
CC(Nc1ccc2c(c1)OCCn1cc(N3C(=O)OCC3C(F)F)nc1-2)C(N)=O (centres undefined) + CCn1c(-c2cccnc2C(C)OC)c2c3cc(ccc31)N1CCOC(CC(NC(=O)C(C(C)C)N(C)C(=O)C3(F)CCN(C(=O)C#CC(C)(C)N(C)C)CC3)C(=O)N3CCCC(N3)C(=O)OCC(C)(C)C2)C1	6.33
Nc1ccn(C2OC(CO)C(O)C2(F)F)c(=O)n1 (centres undefined) + CCn1c(-c2cc(N3CCN(C)CC3)cnc2C(C)OC)c2c3cc(ccc31)-c1csc(n1)CC(NC(=O)C1CC1C)C(=O)N1CCCC(N1)C(=O)OCC(C)(C)C2	> 8.50
CCC(CC)c1cc(NC2CCC(N)C2)n2nccc2n1 (centres undefined) + CCn1c(-c2cc(N3CCN(C)CC3)cnc2C(C)OC)c2c3cc(ccc31)-c1csc(n1)CC(NC(=O)C1CC1C)C(=O)N1CCCC(N1)C(=O)OCC(C)(C)C2	> 7.50
C=CC(=O)Nc1cc(Nc2nccc(-c3cn(C)c4ccccc34)n2)c(OC)cc1N(C)CCN(C)C + CCn1c(-c2cc(N3CCN(C)CC3)cnc2C(C)OC)c2c3cc(ccc31)-c1csc(n1)CC(NC(=O)C1CC1C)C(=O)N1CCCC(N1)C(=O)OCC(C)(C)C2	> 8.50
CC1(O)CCCC1n1c(=O)c(C(F)F)cc2cnc(NC3CCN(S(C)(=O)=O)CC3)nc21 (centres undefined) + CCn1c(-c2cc(N3CCN(C)CC3)cnc2C(C)OC)c2c3cc(ccc31)-c1csc(n1)CC(NC(=O)C1CC1C)C(=O)N1CCCC(N1)C(=O)OCC(C)(C)C2	> 7.50
O=C(c1ccc(F)c(F)c1Nc1ccc(I)cc1F)N1CC(O)([C@@H]2CCCCN2)C1 + CCn1c(-c2cccnc2C(C)OC)c2c3cc(ccc31)N1CCOC(CC(NC(=O)C(C(C)C)N(C)C(=O)C3(F)CCN(C(=O)C#CC(C)(C)N(C)C)CC3)C(=O)N3CCCC(N3)C(=O)OCC(C)(C)C2)C1	7.09
O=C(c1ccc(F)c(F)c1Nc1ccc(I)cc1F)N1CC(O)([C@@H]2CCCCN2)C1 + CCn1c(-c2cc(N3CCN(C)CC3)cnc2C(C)OC)c2c3cc(ccc31)-c1csc(n1)CC(NC(=O)C1CC1C)C(=O)N1CCCC(N1)C(=O)OCC(C)(C)C2	> 8.50
CC1(C)CCC(Nc2ncc(C(F)(F)F)c(-c3c[nH]c4c(P(C)(C)=O)c(C#N)ccc34)n2)CN1 (centres undefined) + CCn1c(-c2cccnc2C(C)OC)c2c3cc(ccc31)N1CCOC(CC(NC(=O)C(C(C)C)N(C)C(=O)C3(F)CCN(C(=O)C#CC(C)(C)N(C)C)CC3)C(=O)N3CCCC(N3)C(=O)OCC(C)(C)C2)C1	< 6.52
Nc1ccn(C2OC(CO)C(O)C2(F)F)c(=O)n1 (centres undefined) + CCn1c(-c2cccnc2C(C)OC)c2c3cc(ccc31)N1CCOC(CC(NC(=O)C(C(C)C)N(C)C(=O)C3(F)CCN(C(=O)C#CC(C)(C)N(C)C)CC3)C(=O)N3CCCC(N3)C(=O)OCC(C)(C)C2)C1	7.19
NC1c2ccccc2OC12CCN(c1cnc3c(N4CCCc5ncccc54)n[nH]c3n1)CC2 (centres undefined) + CCn1c(-c2cc(N3CCN(C)CC3)cnc2C(C)OC)c2c3cc(ccc31)-c1csc(n1)CC(NC(=O)C1CC1C)C(=O)N1CCCC(N1)C(=O)OCC(C)(C)C2	> 7.50
